# key: entry, value: half-life
# TEST: Half-life in human
# Assay type: ADME

Field: example entries. Status: answers known.
>  <MOLECULE>
CC1(C)OC[C@@H](COC(=O)CCc2ccc(OC[C@@H](O)CNCCNC(=O)N3CCOCC3)cc2)O1 [LANDIOLOL]

>  <half-life>
~4 min

$$$$
>  <MOLECULE>
CCCC(=O)OCOC(=O)C1=C(C)NC(C)=C(C(=O)OC)C1c1cccc(Cl)c1Cl (stereo not drawn) [CLEVIDIPINE]

>  <half-life>
~1 min

$$$$

// next entry
# input For the molecule CN(C)CCc1c[nH]c2ccccc12 [N,N-DIMETHYLTRYPTAMINE] , give its measured half-life value.
# output ~10 min

###

# TEST: Half-life in iv dosed human
# Format: ADME, organism-based
# CONDITION: in vivo
READOUT TYPE: half-life

# input For the compound COC(=O)CCc1ccc(OCC(O)CNC(C)C)cc1 (stereo unspecified) , give its measured half-life value.
# output ~9 min
